Quick list: peptide exchange yield per entry.
molecular target: T1, HLA-A*02:01 (human); test: UV-ligand exchange + anti-b2m ELISA; peptide exchange yield grade (+ >=10%, ++ >=20%, +++ >=50, ++++ >=75%)
T1 construct: MHC monomers first loaded with a UV-sensitive peptide (not identified) that is cleaved by UV light and exchanged for the test peptide; captured on streptavidin plates, detected with anti-β2m; also called peptide-receptive MHC molecules; MHC class I

// returns reported peptide exchange yield for input VVASNIMEV (source gene PFKFB3) [VVASNIMEV (SEQ ID NO: 48)] 20 to 50%

// returns reported peptide exchange yield for input VLIVEVPGV (source gene ADCY5) [VLIVEVPGV (SEQ ID NO: 49)] 50 to 75%

// returns reported peptide exchange yield for input ILADLLPSL (source gene DHRS7B) [ILADLLPSL (SEQ ID NO: 69)] 20 to 50%

// returns reported peptide exchange yield for input TLAELHISL (source gene NLRC5) [TLAELHISL (SEQ ID NO: 88)] 20 to 50%

// returns reported peptide exchange yield for input SLLQATDFMSL (source gene THY1) [SLLQATDFMSL (SEQ ID NO: 82)] 50 to 75%

// returns reported peptide exchange yield for input FLLEIRQTL (source gene SNX13) [FLLEIRQTL (SEQ ID NO: 53)] 20 to 50%

// returns reported peptide exchange yield for input FLFRDILEL (source gene DROSHA) [FLFRDILEL (SEQ ID NO: 92)] 50 to 75%
